Source: ChEMBL document CHEMBL1123299

Each entry below lists one item and its recorded LD50 value.
Test: Acute toxicity determined after intravenal administration in mice
Assay type: organism-based
Details: mouse, in vivo, iv

Worked examples follow.
Lab note: measured LD50 of C/C=C/c1ccc(OCC(=O)NCCNC(=O)C2=CC(C)(C)NC2(C)C)c(OC)c1 was 18 mg/kg

According to the records, this compound Cc1cc(Cl)ccc1OCC(=O)NCCNC(=O)C1=CC(C)(C)NC1(C)C displays LD50 of 36 mg/kg

The reported value for COc1ccccc1CNCCCNC(=O)C1=CC(C)(C)NC1(C)C.Cl in terms of LD50 is 7.9 mg/kg

Given item COc1cc(CNCCNC(=O)C2=CC(C)(C)NC2(C)C)cc(OC)c1OC , the value recorded as its LD50 is 56 mg/kg

Recorded result, CC1(C)C=C(C(=O)NCCNCc2cccs2)C(C)(C)N1 , LD50: 123 mg/kg

The reported value for CC1(C)C=C(C(=O)NCCNC(=O)C2CCCCC2C(=O)O)C(C)(C)N1 (stereo unspecified) in terms of LD50 is 1130 mg/kg

Form: compound = CC1(C)C=C(C(=O)NCCCNCc2cccc(Oc3ccccc3)c2)C(C)(C)N1 ; LD50 = 11 mg/kg

Note to self: LD50 recorded for C=CCc1ccc(OCC(=O)NCCCNC(=O)C2CC(C)(C)NC2(C)C)c(OC)c1 (stereo unspecified) was 38 mg/kg

Just so you know, measured LD50 for CC1(C)C=C(C(=O)NCCNC(=O)C(C)(C)Oc2ccc(Cl)cc2)C(C)(C)N1 came out at 47 mg/kg

Short answer for CC1(C)C=C(C(=O)NCCNCc2ccccc2O)C(C)(C)N1 : LD50 was 30 mg/kg

Continuing:
Sure, the documented LD50 for CC1(C)C=C(C(=O)NCC(C)(C)NCc2cccs2)C(C)(C)N1 is 49 mg/kg

compound CC1(C)C=C(C(=O)NCCNC(=O)c2ccccc2C(=O)O)C(C)(C)N1 , LD50 observed: 357 mg/kg

Summary for this compound, C=CCc1ccc(OC(C)C(=O)NCCNC(=O)C2=CC(C)(C)NC2(C)C)c(OC)c1 (stereo unspecified) : LD50 is 9.3 mg/kg

GET /value?item= CC1(C)C=C(C(=O)NCCNC(=O)c2ccccn2)C(C)(C)N1 &field=LD50 returns 88 mg/kg

In plain terms, CC1(C)C=C(C(=O)NC(c2ccccc2)c2ccccc2)C(C)(C)N1 has a documented LD50 of 63 mg/kg

====

Assay: Acute toxicity in secondary evaluation when administered intravenously (iv) against aconitine-induced arrhythmias in anesthetized rats..parenthesis indicates 95%CL
Format: organism-based
Details: rat, in vivo
parameter: LD50 (mg/kg)
Entry rule: numbers only, all in mg/kg.

So for Cc1cccc(C)c1OCC(C)NC(=O)C1=CC(C)(C)N([O])C1(C)C (stereo not drawn) , the logged LD50 turned out to be 54

LD50 reported for this molecule Cc1cccc(C)c1NC(=O)C(C)NC(=O)C1=CC(C)(C)N([O])C1(C)C (stereo not drawn) : 165

// moving on: another record for LD50
# LD50 of Cc1cccc(C)c1NC(=O)CNC(=O)C1=CC(C)(C)N([O])C1(C)C = 136

====

Reported values of No. of positive cases for individual entries
Tested on: Rattus norvegicus
Experiment: Incidence of arrhythmias in rats after a intravenal administration at 4 mg/kg, expressed as no. of positive cases out of no. of tested cases (10)
Type: functional
Give a plain numeric answer without units written out.

Lab note: CC1(C)C=C(C(=O)NC(C(N)=O)c2ccccc2)C(C)(C)N1 (configuration not stated) gave No. of positive cases of 2

So for Cc1cc(Cl)ccc1OCC(=O)NCCCNC(=O)C1=CC(C)(C)NC1(C)C , the logged No. of positive cases turned out to be 3

Per the record, CC1(C)C=C(C(=O)NCCCNC(=O)C(O)c2ccccc2)C(C)(C)N1 (configuration not stated) has No. of positive cases of 1

// sample CC1(C)C=C(C(=O)NCC(C)(C)NCc2cccs2)C(C)(C)N1 , its No. of positive cases was 1

Item: C/C=C/c1ccc(OCC(=O)NCCCNC(=O)C2=CC(C)(C)NC2(C)C)c(OC)c1 | No. of positive cases: 7

No. of positive cases for CC1(C)C=C(C(=O)NCc2ccncc2)C(C)(C)N1 is 0

Entry COc1ccc(CCNC(=O)C2=CC(C)(C)NC2(C)C)cc1OC ; No. of positive cases = 0

Query CC1(C)C=C(C(=O)NCCCNC(=O)c2ccccc2C(=O)O)C(C)(C)N1 yields No. of positive cases of 0

Looking up CC1(C)C=C(C(=O)NCCCN2C(=O)c3ccccc3C2=O)C(C)(C)N1[O] , I found its No. of positive cases recorded as 0

Reported No. of positive cases for C=CCOc1c(CNCCCNC(=O)C2=CC(C)(C)NC2(C)C)cccc1OC was 10

// sample CC1(C)C=C(C(=O)NCCN2C(=O)C3CC=CCC3C2=O)C(C)(C)N1 (configuration not stated) , its No. of positive cases was 0

Reported No. of positive cases ( CC1(C)C=C(C(=O)NCCCNCc2ccco2)C(C)(C)N1 ) = 0

Data point: COc1cc(CNCCCNC(=O)C2=CC(C)(C)NC2(C)C)cc(OC)c1OC ; No. of positive cases = 9

Entry under test: Cc1cccc(C)c1NC(=O)CNC(=O)C1CC(C)(C)NC1(C)C (configuration not stated) . Its No. of positive cases was 10

CC1(C)C=C(C(=O)NCCNC(=O)C2CC=CCC2C(=O)O)C(C)(C)N1 (configuration not stated) has a reported No. of positive cases of 0

Lab note: measured No. of positive cases of CC1(C)C=C(C(=O)NCc2ccccc2)C(C)(C)N1 was 3

So, Cc1cccc(C)c1NC(=O)CNC(=O)C1=CC(C)(C)NC1(C)C ? Its No. of positive cases was 10

Quick note, No. of positive cases for CC1(C)C=C(C(=O)NCc2ccc(Cl)cc2)C(C)(C)N1 landed at 0
